- target_system: recombinant human pancreatic GLK (Homo sapiens)
- test_summary: biochemical
# if measured EC50 < 1000 nM: 1 (yes)  # else: 0 (no)

| compound | label |
| --- | --- |
| Cc1cnc(NC(=O)[C@H](COC2CCC2)Oc2ncnc3c2cnn3-c2ccccc2Cl)cn1 | 1 (yes) |
| CCCCC(Sc1ncnc2c1cnn2-c1ccccc1Cl)C(=O)Nc1nc(C)cs1 (stereo not drawn) | 1 (yes) |
| CCC(C)C(Sc1ncnc2c1cnn2-c1ccccc1Cl)C(=O)Nc1ccc(C)cn1 (stereo not drawn) | 0 (no) |
| Cc1ccc(NC(=O)[C@H](CCNS(C)(=O)=O)Oc2ncnc3c2cnn3-c2ccccc2Cl)nc1 | 1 (yes) |
| COCCC(Oc1ncnc2c1cnn2-c1ccccn1)C(=O)Nc1ccc(C)cn1 (stereo not drawn) | 0 (no) |
| CC(C)OC[C@H](Oc1ncnc2c1cnn2-c1ccccc1Cl)C(=O)Nc1ccc(Cl)cn1 [Example 115a] | 1 (yes) |
| Cc1cnc(NC(=O)[C@H](CN2CC(O)C2)Oc2ncnc3c2cnn3-c2ncccc2Cl)s1 | 1 (yes) |
| COC[C@H](Oc1ncnc2c1cnn2-c1ccccc1Cl)C(=O)Nc1nc(C)ns1 | 0 (no) |
| Cc1ccc(NC(=O)[C@H](COCCO)Oc2ncnc3c2cnn3-c2ccccc2Cl)nc1 | 1 (yes) |
| C[C@H](CO)OC[C@H](Oc1ncnc2c1cnn2-c1c(Cl)cccc1C#N)C(=O)Nc1ccc(C#N)cn1 | 1 (yes) |
| COC[C@@H](C)OC[C@H](Oc1ncnc2c1cnn2-c1ccccc1Cl)C(=O)Nc1cnc(C)cn1 | 1 (yes) |
| CC(C)OC[C@H](Oc1ncnc2c1cnn2-c1ncccc1Cl)C(=O)Nc1nc(C#N)cs1 [Example 127h] | 0 (no) |
| Cc1cnc(NC(=O)[C@H](COC2CCC2)Oc2ncnc3c2cnn3-c2ccncc2C)cn1 | 0 (no) |
| COCCC(Sc1ncnc2c1cnn2-c1ccccc1Cl)C(=O)Nc1nc(C)cs1 (stereo not drawn) | 1 (yes) |
| CCOC[C@H](Oc1ncnc2c1cnn2-c1nccn1C)C(=O)Nc1ccc(Cl)cn1 | 0 (no) |
| Cc1cnc(NC(=O)[C@H](COC(C)C)Oc2ncnc3c2cnn3-c2nccnc2C)cn1 | 0 (no) |
| CCCCC(Oc1ncnc2c1cnn2-c1ccccc1Cl)C(=O)Nc1ccc(C)cn1 (stereo not drawn) | 1 (yes) |
| COCC[C@H](Oc1ncnc2c1cnn2-c1cccc(OC)c1)C(=O)Nc1ccc(C)cn1 | 0 (no) |
| CCOC(Sc1ncnc2c1cnn2-c1ccccc1OC)C(=O)Nc1ccon1 (stereo not drawn) | 0 (no) |
| CCOC[C@H](Oc1ncnc2c1cnn2-c1ncccc1Cl)C(=O)Nc1ccc(Cl)cn1 [Example 127g] | 1 (yes) |
| CCC(C)C(Sc1ncnc2c1cnn2-c1ccccc1Cl)C(=O)Nc1nc(C)cs1 (stereo not drawn) | 0 (no) |
| N#Cc1cccc(Cl)c1-n1ncc2c(O[C@@H](COCCO)C(=O)Nc3ccccn3)ncnc21 | 1 (yes) |
| CC(C)OCC(Oc1ncnc2c1cnn2-c1ccccc1Cl)C(=O)Nc1ccc(F)cn1 (stereo not drawn) | 1 (yes) |
| O=C(Nc1ccc(Cl)cn1)[C@H](COCCO)Oc1ncnc2c1cnn2-c1ccccc1Cl | 1 (yes) |
| Cc1nnc(NC(=O)C(COC(C)C)Oc2ncnc3c2cnn3-c2ccccc2Cl)o1 (stereo not drawn) | 0 (no) |
| Cc1ccc(NC(=O)[C@H](CCO)Oc2ncnc3c2cnn3-c2ncccc2Cl)nc1 | 1 (yes) |
| Cc1cnc(NC(=O)C(COC(C)C)Oc2ncnc3c2cnn3-c2ccccc2Cl)s1 (stereo not drawn) | 1 (yes) |
| COCCOCCC(Sc1ncnc2c1cnn2C(C)C)C(=O)Nc1nc(C)cs1 (stereo not drawn) | 0 (no) |
| COCC[C@@H](Oc1ncnc2c1cnn2-c1ccc(F)cc1F)C(=O)Nc1ccc(C)cn1 | 0 (no) |
| Cc1ccc(C#N)cc1-n1ncc2c(O[C@@H](COCCO)C(=O)Nc3ccc(C#N)cn3)ncnc21 | 0 (no) |
| CCOC[C@H](Oc1ncnc2c1cnn2-c1ncccc1Cl)C(=O)Nc1cnc(C)cn1 | 0 (no) |
| O=C(Nc1ccccn1)[C@H](CN1CC(CO)C1)Oc1ncnc2c1cnn2-c1ccccc1Cl | 1 (yes) |
| O=C(Nc1ccc(F)cn1)[C@H](CCO)Oc1ncnc2c1cnn2-c1ncccc1Cl [Example 143d] | 1 (yes) |

* * *

- target_system: recombinant human pancreatic GLK (Homo sapiens)
- Sequence (P35557 1-465): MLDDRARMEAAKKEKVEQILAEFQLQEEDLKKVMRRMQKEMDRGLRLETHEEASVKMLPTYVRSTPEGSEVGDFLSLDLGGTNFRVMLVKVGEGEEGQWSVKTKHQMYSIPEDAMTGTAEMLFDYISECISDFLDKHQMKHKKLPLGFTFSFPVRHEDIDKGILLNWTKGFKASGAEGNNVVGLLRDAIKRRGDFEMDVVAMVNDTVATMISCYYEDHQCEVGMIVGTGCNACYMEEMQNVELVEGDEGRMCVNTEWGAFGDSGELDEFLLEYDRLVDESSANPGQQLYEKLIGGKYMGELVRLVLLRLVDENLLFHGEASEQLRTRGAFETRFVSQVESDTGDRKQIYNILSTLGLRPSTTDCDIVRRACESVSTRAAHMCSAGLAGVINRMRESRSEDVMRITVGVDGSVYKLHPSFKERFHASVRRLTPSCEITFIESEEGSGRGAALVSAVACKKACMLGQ
- test_summary: biochemical
assay_readout: log10 of EC50 (log10 of the value in nM)

| molecule | target_system | experimental_result |
| --- | --- | --- |
| Cc1ccc(NC(=O)[C@H](CCS(C)(=O)=O)Oc2ncnc3c2cnn3-c2ccccc2Cl)nc1 | recombinant human pancreatic GLK (Homo sapiens) | 2.79 |
| O=C(Nc1ccc(F)cn1)[C@H](CN1CC(O)C1)Oc1ncnc2c1cnn2-c1ccccc1Cl | recombinant human pancreatic GLK (Homo sapiens) | 2.36 |
| CCOC[C@H](Oc1ncnc2c1cnn2-c1ncccc1Cl)C(=O)Nc1ccccn1 [Example 127e] | recombinant human pancreatic GLK (Homo sapiens) | 2.74 |
| C[C@H](CO)OC[C@H](Oc1ncnc2c1cnn2-c1ncccc1Cl)C(=O)Nc1ccc(C#N)cn1 | recombinant human pancreatic GLK (Homo sapiens) | 2.78 |
| Cc1ccc(NC(=O)[C@@H](Oc2ncnc3c2cnn3-c2ccccc2Cl)C(C)C)nc1 | recombinant human pancreatic GLK (Homo sapiens) | 2.67 |
| CCOC[C@H](Oc1ncnc2c1cnn2-c1ncccc1Cl)C(=O)Nc1ccc(F)cn1 [Example 127d] | recombinant human pancreatic GLK (Homo sapiens) | 2.83 |
| C[C@H](CO)OC[C@H](Oc1ncnc2c1cnn2-c1ncccc1Cl)C(=O)Nc1ccc(F)cn1 | recombinant human pancreatic GLK (Homo sapiens) | 2.92 |
| Cc1ccc(NC(=O)[C@H](COCCO)Oc2ncnc3c2cnn3-c2cccc(C#N)c2C)nc1 | recombinant human pancreatic GLK (Homo sapiens) | 3.45 |
| CCCCC(Oc1ncnc2c1cnn2C)C(=O)Nc1ccc(C)cn1 (centres unmarked) | recombinant human pancreatic GLK (Homo sapiens) | 4.04 |
| COC[C@@H](C)OC[C@H](Oc1ncnc2c1cnn2-c1ncccc1Cl)C(=O)Nc1ccc(C)cn1 | recombinant human pancreatic GLK (Homo sapiens) | 3.08 |
| Cc1cnc(NC(=O)[C@H](COC2CCC2)Oc2ncnc3c2cnn3-c2ccccc2)cn1 | recombinant human pancreatic GLK (Homo sapiens) | 3.38 |
| CC(C)OC[C@H](Oc1ncnc2c1cnn2-c1ccccc1Cl)C(=O)Nc1ccccn1 [Example 118a] | recombinant human pancreatic GLK (Homo sapiens) | 2.08 |
| COC[C@H](Oc1ncnc2c1cnn2-c1ccc(F)cc1Cl)C(=O)Nc1ccc(C)cn1 | recombinant human pancreatic GLK (Homo sapiens) | 3.11 |
| Cc1cnc(NC(=O)[C@H](COC2CCC2)Oc2ncnc3c2cnn3-c2ncc(Cl)cc2C(F)(F)F)cn1 | recombinant human pancreatic GLK (Homo sapiens) | 2.91 |
| O=C(Nc1ccccn1)[C@H](CCO)Oc1ncnc2c1cnn2-c1ncccc1Cl [Example 143c] | recombinant human pancreatic GLK (Homo sapiens) | 2.79 |
| CCOC[C@H](Oc1ncnc2c1cnn2-c1ccccc1C(F)(F)F)C(=O)Nc1cnc(C)cn1 | recombinant human pancreatic GLK (Homo sapiens) | 3.04 |
| Cc1cnc(NC(=O)[C@H](COC2CCC2)Oc2ncnc3c2cnn3-c2cccnc2C)cn1 | recombinant human pancreatic GLK (Homo sapiens) | 2.82 |
| CCOC[C@H](Oc1ncnc2c1cnn2-c1cc(C)ccc1C)C(=O)Nc1ccc(C#N)cn1 | recombinant human pancreatic GLK (Homo sapiens) | 3.26 |
| Cc1cnc(NC(=O)[C@H](CN2CC(O)C2)Oc2ncnc3c2cnn3-c2c(Cl)cccc2C#N)cn1 | recombinant human pancreatic GLK (Homo sapiens) | 2.69 |
| CCOC[C@H](Oc1ncnc2c1cnn2-c1cccc(Cl)c1Cl)C(=O)Nc1ccc(C#N)cn1 | recombinant human pancreatic GLK (Homo sapiens) | 2.51 |
| N#Cc1ccc(NC(=O)[C@H](COCCO)Oc2ncnc3c2cnn3-c2ncccc2Cl)nc1 | recombinant human pancreatic GLK (Homo sapiens) | 3.18 |
| CCOC[C@H](Oc1ncnc2c1cnn2-c1cccnc1C)C(=O)Nc1ccc(Cl)cn1 | recombinant human pancreatic GLK (Homo sapiens) | 3.00 |
| Cc1ccc(NC(=O)[C@H](COCCO)Oc2ncnc3c2cnn3Cc2ccccc2)nc1 | recombinant human pancreatic GLK (Homo sapiens) | 3.52 |
| COC[C@H](Oc1ncnc2c1cnn2-c1ccccc1Cl)C(=O)Nc1ccc(C)cn1 [Example 87] | recombinant human pancreatic GLK (Homo sapiens) | 2.51 |
| N#Cc1cccc(Cl)c1-n1ncc2c(O[C@@H](CN3CC(O)C3)C(=O)Nc3ccc(Cl)cn3)ncnc21 | recombinant human pancreatic GLK (Homo sapiens) | 2.65 |
| C[C@H](CO)OC[C@H](Oc1ncnc2c1cnn2-c1c(Cl)cccc1C#N)C(=O)Nc1ccc(F)cn1 | recombinant human pancreatic GLK (Homo sapiens) | 2.34 |
| O=C(Nc1ccccn1)[C@H](COCCO)Oc1ncnc2c1cnn2-c1c(Cl)cccc1Cl | recombinant human pancreatic GLK (Homo sapiens) | 2.36 |

Numbers sourced from patent US8143263B2.
